Assay: chemical genetic growth profiling, strain panel (AID 1159580);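 also: tested at 20 µM; growth read once vehicle control cultures reached saturation at 30 °C; 1 = growth at the plate median or of vehicle wells; lower values mean less growth of the strain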
Conditions: S. cerevisiae deletion strains, growth OD, locus YMR058W, strain fet3, stronger effect = lower value
About 2,000 (36%) of roughly 5,500 compounds were called active. Another 18% or so got no clear call; they are omitted. The list shows a part of the results.
For each record, write down the corresponding normalized growth.
The response must contain the number and no unit.

Recorded normalized growth of CSCCC(NC=O)C(=O)NC(CC(C)C)C(=O)NC(Cc1ccccc1)C(=O)O (stereo not given) , please.
1

Recorded normalized growth of "CCCc1nc(C(C)(C)O)c(C(=O)OCc2oc(=O)oc2C)n1Cc1ccc(-c2ccccc2-c2nn[nH]n2)cc1" , please.
0.965

Recorded normalized growth of C[C@]12CCC3C(CC[C@H]4CC(=O)CC[C@]34C)C1CCC2=O (stereo not given in full) , please.
0.872

Recorded normalized growth of "COc1cc(O)c(C(C)=O)c(OC)c1" , please.
0.972

Recorded normalized growth of C[C@]12C=CC(=O)C=C1CCC1C2CC[C@]2(C)C(=O)CCC12 (stereo not given in full) , please.
0.979

Recorded normalized growth of "CC(=O)N[C@@H](CC(=O)O)C(=O)O" , please.
1.02

Recorded normalized growth of "CN(C)c1nc(N(C)C)nc(N(C)C)n1" , please.
0.969

Recorded normalized growth of C[N+]1(C)CCc2cc3c(cc2[C@H]1C1OC(=O)c2c1ccc1c2OCO1)OCO3 (stereo not given in full) , please.
0.986

Recorded normalized growth of "O=c1[nH]cnc2nc[nH]c12" , please.
1.02

Recorded normalized growth of "Cn1cnc([N+](=O)[O-])c1Sc1ncnc2nc[nH]c12" , please.
1.01

Recorded normalized growth of "O=c1cc(-c2ccc(O)cc2)oc2cc(O[C@@H]3O[C@H](CO)[C@@H](O)[C@H](O)[C@H]3O[C@@H]3OC[C@](O)(CO)[C@H]3O)cc(O)c12" , please.
1.01

Recorded normalized growth of "COc1ccc2c(=O)c(CC(=O)O)coc2c1" , please.
0.983

Recorded normalized growth of "CC(C)=CCC1=C(O)c2ccccc2C(=O)C1=O" , please.
0.651

Recorded normalized growth of CC(=O)OCC(=O)[C@@]1(O)CCC2C3CCC4=CC(=O)CC[C@]4(C)[C@@]3(F)[C@@H](O)C[C@@]21C (stereo not given in full) , please.
1.02

Recorded normalized growth of "O=C1c2ccccc2C(=O)c2c(O)c(O)cc(O)c21" , please.
0.33

Recorded normalized growth of "CCNc1nc(Cl)nc(NC(C)C)n1" , please.
1.01

Recorded normalized growth of "O=c1[nH]c2ccccc2n1C1CCN(CCCC(c2ccc(F)cc2)c2ccc(F)cc2)CC1" , please.
0.897

Recorded normalized growth of "O=C(/C=C/C(=O)Oc1ccccc1C(=O)O)Oc1ccccc1C(=O)O" , please.
0.984

Recorded normalized growth of "C[C@H]1C(=O)O[C@@H]2CCN3CC=C(COC(=O)[C@](C)(O)[C@]1(C)O)[C@H]23" , please.
0.997

Recorded normalized growth of "Cc1cccc(N(C)C(=S)Oc2ccc3ccccc3c2)c1" , please.
0.994

Recorded normalized growth of "NCCS" , please.
0.985

Recorded normalized growth of OC[C@@H](O)C(O[C@@H]1O[C@H](CO)[C@H](O)[C@H](O)[C@H]1O)[C@H](O)[C@@H](O)CO (stereo not given in full) , please.
0.99

Recorded normalized growth of "CCS(=O)(=O)CCn1c([N+](=O)[O-])cnc1C" , please.
1

Recorded normalized growth of "COc1c(O)cc(O)cc1O" , please.
1.01

Recorded normalized growth of "OCCN1CCN(CCCN2c3ccccc3Sc3ccc(Cl)cc32)CC1" , please.
0.995

Recorded normalized growth of O=C1OC(=O)C2C3CCC(O3)C12 (stereo not given) , please.
1

Recorded normalized growth of C[N+]1(C)C2CC[C@H]1CC(OC(=O)C(O)c1ccccc1)C2 (stereo not given in full) , please.
1.01

Recorded normalized growth of CC(=O)O[C@H]1CC2CCC3C(CC[C@@]4(C)C3C[C@H]([N+]3(C)CCCCC3)[C@@H]4OC(C)=O)[C@@]2(C)C[C@@H]1[N+]1(C)CCCCC1 (stereo not given in full) , please.
1.02

Recorded normalized growth of "Cc1c(N(C)CS(=O)(=O)O)c(=O)n(-c2ccccc2)n1C" , please.
1.01

Recorded normalized growth of "COc1cc(OC)c(C(C)=O)c(O)c1C" , please.
0.908

Recorded normalized growth of "CC(C)=CCOc1cc2oc(=O)ccc2cc1O" , please.
0.934

Recorded normalized growth of "CN1CCN(C(c2ccccc2)c2ccccc2)CC1" , please.
1.01

Recorded normalized growth of "O=C(O)c1cc2cc(Cl)ccc2[nH]1" , please.
0.985

Recorded normalized growth of C=C1CC2C(CCC3(C)C(=O)CCC23)C2(C)C=CC(=O)C=C12 (stereo not given) , please.
0.929

Recorded normalized growth of "Cc1cc(O)c2c(c1O)C(=O)c1c(O)cc(C)c(O)c1C2=O" , please.
0.923

Recorded normalized growth of "FC(F)(F)COCC(F)(F)F" , please.
1.04

Recorded normalized growth of "CNC(=O)CSP(=S)(OC)OC" , please.
1.01

Recorded normalized growth of "COC(=O)C1=CO[C@@H](O[C@@H]2O[C@H](CO)[C@@H](O)[C@H](O)[C@H]2O)[C@@H]2[C@@H](C)[C@@H](O)C[C@H]12" , please.
1

Recorded normalized growth of C[C@]12C=CC(=O)C=C1CCC1C2C(=O)C[C@@]2(C)C1CC[C@]2(O)C(=O)CO (stereo not given in full) , please.
0.996

Recorded normalized growth of CC(=O)OC1CCC23C(=O)OC45CCC(C6=CC(=O)OC6)C4(C)CCC2C5CCC3(O)C1 (stereo not given) , please.
0.988

Recorded normalized growth of CCOc1nc2cccc(C(=O)OC(C)OC(=O)OC3CCCCC3)c2n1Cc1ccc(-c2ccccc2-c2nn[nH]n2)cc1 (stereo not given) , please.
1.02

Recorded normalized growth of "COc1cc2ccc(=O)oc2c(OC)c1OC" , please.
0.974

Recorded normalized growth of "Nc1ncnc2c1ncn2[C@@H]1O[C@H](CO)[C@@H](O)[C@@H]1O" , please.
1.02

Recorded normalized growth of "COc1ccc2ccc(=O)oc2c1CC=C(C)C" , please.
0.89

Recorded normalized growth of C[C@]12CCC3C(CC[C@H]4C[C@@H](O)CC[C@]34C)C1CCC2=O (stereo not given in full) , please.
0.943
